System: Trypanosoma cruzi
test_name: Antiprotozoal activity against epimastigote form of Trypanosoma cruzi Tulahuen 2 assessed as parasite growth inhibition measured at day 5
Format: functional, organism-based
condition_parameters: Tulahuen 2, 120 h
For each record, write down the corresponding pIC50.
// pIC50: -log10(molar conc.)

Inquiry: What measured pIC50 goes with COc1ccccc1NC(=O)NCC(O)COC1(C)c2ccccc2-c2c1c(OC)nc1ccc(Br)cc21 (centres undefined) ?
Reply text: 5.60

Inquiry: Entry CCCC(=O)O/N=C1\c2ccccc2-c2c1c(-n1ccnc1)nc1ccc(Br)cc21 has what pIC50?
Reply text: 5.62

Inquiry: I have this compound here, COc1nc2ccc(Br)cc2c2c1C(C)(OCC(O)Cn1ccc(-c3cccc(C(F)(F)F)c3)n1)c1ccccc1-2 (centres undefined) , and I need its recorded pIC50.
Reply text: 5.27

Inquiry: For O=C1c2ccccc2-c2c1c(Nc1ccncc1)nc1ccc(Br)cc21 , what is its reported pIC50?
Reply text: 6.60

* * *

Tested on: Trypanosoma cruzi
test_name: Antiprotozoal activity against epimastigote form of Trypanosoma cruzi Tulahuen 2 assessed as parasite growth inhibition measured at day 5
Type: functional, organism-based
condition_parameters: Tulahuen 2, 120 h
The label is 1 (yes) for IC50 below 2 µM and 0 (no) for IC50 equal to or exceeding 2 µM.

Inquiry: Does the reported IC50 of CC(NC(=O)OC(C)(C)C)C(=O)O/N=C1\c2ccccc2-c2c1c(N1CCN(c3ccccn3)CC1)nc1ccc(Br)cc21 (centres undefined) stay below 2 µM?
Reply text: 0 (no)

Inquiry: Here's an entry: O=C1c2ccccc2-c2c1c(N1CCN(c3ccccn3)CC1)nc1ccc(Br)cc21 . Is its IC50 below 2 µM?
Reply text: 0 (no)

Inquiry: A record lists COc1nc2ccc(Br)cc2cc1C(c1ccccc1)n1ccnc1 (centres undefined) . Is its IC50 below 2 µM?
Reply text: 1 (yes)

Inquiry: Consider the compound CC(C)(C)OC(=O)NCC(=O)O/N=C1\c2ccccc2-c2c1c(N1CCN(c3ccccn3)CC1)nc1ccc(Br)cc21 . Is its IC50 strictly less than 2 µM?
Reply text: 0 (no)

Inquiry: API: query returns whether the compound falls strictly under 2 µM in IC50. Query: COc1nc2ccc(Br)cc2c2c1C(C)(OCC(O)Cn1ccnc1)c1ccccc1-2 (centres undefined)
Reply text: 0 (no)

Inquiry: # strict comparison: is reported IC50 < 2 µM? input = CC(C)(C)OC(=O)N1CCCC(C(=O)O/N=C2\c3ccccc3-c3c2c(C(F)(F)F)nc2ccc(Br)cc32)C1 (centres undefined)
Reply text: 0 (no)

Inquiry: Below 2 µM on IC50? Entry CC(O)c1cc(F)ccc1Oc1nc2ccc(NC(=O)Nc3cccc([N+](=O)[O-])c3)cc2cc1Cc1ccccc1 (centres undefined)
Reply text: 1 (yes)

Inquiry: Find out if reported IC50 for CC(=O)OC1(C)c2ccccc2-c2c1c(-n1ccnc1)nc1ccc(Br)cc21 (centres undefined) is less than 2 µM
Reply text: 1 (yes)

Inquiry: Is the reported IC50 for CC(O)c1cc(F)ccc1Oc1nc2ccc(NS(=O)(=O)c3cccc(C(F)(F)F)c3)cc2cc1Cc1ccccc1 (centres undefined) strictly below 2 µM?
Reply text: 0 (no)

* * *

test_name: Selectivity index, ratio of CC50 for human MRC5 cells to IC50 for trypomastigote form of Trypanosoma brucei brucei 427
Format: functional
measured_endpoint: Ratio CC50/IC50
Form rule: numeric answer, no unit written next to it.

Inquiry: I'd like to know its Ratio CC50/IC50. The compound in question is O/N=C1\c2ccccc2-c2c1c(N1CCN(c3ccccn3)CC1)nc1ccc(Br)cc21
Reply text: 7.34

Inquiry: Consider the compound shown here: COc1ccc(-c2ccn(CC(O)c3cc(F)ccc3Oc3nc4ccc([N+](=O)[O-])cc4cc3Cc3ccccc3)n2)cc1 (centres undefined) What is its recorded Ratio CC50/IC50?
Reply text: 31.37

Inquiry: Which value of Ratio CC50/IC50 has been reported for O=C1c2ccccc2-c2c1c(N1CCN(c3ccccn3)CC1)nc1ccc(Br)cc21 in the records?
Reply text: 0.56

Inquiry: Any idea what Ratio CC50/IC50 was measured for COc1nc2ccc(Br)cc2c2c1C(C)(OCC(O)CN1CCN(Cc3ccccc3)CC1)c1ccccc1-2 (mixture of isomers) ?
Reply text: 2.51
